System: Phosphorylated Ribosomal Protein S6 (RPS6) in THP-1 cells
experiment-summary: THP-1 RPS6 ELISA assay
Format: cell-based, human
test-parameters: Homo sapiens, THP-1, THP-1 cells, 10 nM MCP-1; read-out: PI3Kγ_THP1_RPS6_ELISA IC50
pIC50: −log10 of the molar value. Structures can show the parent of a compound that is named as a salt.
Listed below: pIC50 values for each entry.
measurement-kind: pIC50

{"columns": ["compound", "measurement-kind", "value-observed"],
 "data": [
  ["CC(NC(=O)c1c(N)nn2cccnc12)c1cc(Cl)c2cncn2c1N1C[C@H](O)C[C@H](O)C1 (stereo partly shown) [Example 155B, trifluoroacetate salt]", "pIC50", "> 6.30"],
  ["CC(NC(=O)c1c(N)nn2cccnc12)c1cc(Cl)c2cncn2c1N1CCCC(F)C1 (single isomer, unassigned) [Example 73A]", "pIC50", "> 6.30"],
  ["Nc1nn2cccnc2c1C(=O)NCc1cc(Cl)c2c(Cl)ncn2c1N1CCCC1", "pIC50", "> 6.00"],
  ["CCOc1c(C(C)NC(=O)c2c(N)nn3cccnc23)cc(Cl)c2c(Br)n(CCO)nc12 (stereo not shown)", "pIC50", "< 6.00"]
]}

====

target-entity: PI3Kδ (p110δ/p85α) Recombinant Human Protein (Homo sapiens (Human), UniProt O00329)
Sequence (O00329 whole entry): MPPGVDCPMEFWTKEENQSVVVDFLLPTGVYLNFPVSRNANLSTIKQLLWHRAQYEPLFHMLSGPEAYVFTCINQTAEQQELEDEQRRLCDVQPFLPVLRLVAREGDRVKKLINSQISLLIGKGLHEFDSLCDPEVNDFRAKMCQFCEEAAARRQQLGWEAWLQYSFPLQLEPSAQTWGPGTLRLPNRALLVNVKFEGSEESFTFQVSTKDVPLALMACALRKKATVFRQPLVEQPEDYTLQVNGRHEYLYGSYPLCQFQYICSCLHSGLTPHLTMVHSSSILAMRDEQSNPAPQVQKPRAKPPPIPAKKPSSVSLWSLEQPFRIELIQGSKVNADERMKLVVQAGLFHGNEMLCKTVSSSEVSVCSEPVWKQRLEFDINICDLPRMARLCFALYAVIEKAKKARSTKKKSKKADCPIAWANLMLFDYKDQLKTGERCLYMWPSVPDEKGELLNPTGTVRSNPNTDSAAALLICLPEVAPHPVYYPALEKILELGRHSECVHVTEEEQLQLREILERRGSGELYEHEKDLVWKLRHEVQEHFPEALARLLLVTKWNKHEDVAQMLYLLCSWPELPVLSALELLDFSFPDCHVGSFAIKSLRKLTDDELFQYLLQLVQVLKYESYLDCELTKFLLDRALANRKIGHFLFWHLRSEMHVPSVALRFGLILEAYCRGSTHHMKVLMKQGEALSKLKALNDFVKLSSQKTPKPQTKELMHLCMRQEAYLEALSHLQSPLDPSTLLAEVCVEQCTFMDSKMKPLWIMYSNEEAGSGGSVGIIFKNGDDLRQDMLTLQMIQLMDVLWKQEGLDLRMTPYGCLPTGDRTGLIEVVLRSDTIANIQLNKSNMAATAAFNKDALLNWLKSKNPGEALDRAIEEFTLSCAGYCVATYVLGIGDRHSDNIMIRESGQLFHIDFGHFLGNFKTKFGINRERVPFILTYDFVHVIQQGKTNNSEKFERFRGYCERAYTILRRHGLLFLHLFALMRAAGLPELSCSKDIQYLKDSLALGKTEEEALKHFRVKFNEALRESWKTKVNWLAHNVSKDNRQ
Sequence (P27986 whole entry partner): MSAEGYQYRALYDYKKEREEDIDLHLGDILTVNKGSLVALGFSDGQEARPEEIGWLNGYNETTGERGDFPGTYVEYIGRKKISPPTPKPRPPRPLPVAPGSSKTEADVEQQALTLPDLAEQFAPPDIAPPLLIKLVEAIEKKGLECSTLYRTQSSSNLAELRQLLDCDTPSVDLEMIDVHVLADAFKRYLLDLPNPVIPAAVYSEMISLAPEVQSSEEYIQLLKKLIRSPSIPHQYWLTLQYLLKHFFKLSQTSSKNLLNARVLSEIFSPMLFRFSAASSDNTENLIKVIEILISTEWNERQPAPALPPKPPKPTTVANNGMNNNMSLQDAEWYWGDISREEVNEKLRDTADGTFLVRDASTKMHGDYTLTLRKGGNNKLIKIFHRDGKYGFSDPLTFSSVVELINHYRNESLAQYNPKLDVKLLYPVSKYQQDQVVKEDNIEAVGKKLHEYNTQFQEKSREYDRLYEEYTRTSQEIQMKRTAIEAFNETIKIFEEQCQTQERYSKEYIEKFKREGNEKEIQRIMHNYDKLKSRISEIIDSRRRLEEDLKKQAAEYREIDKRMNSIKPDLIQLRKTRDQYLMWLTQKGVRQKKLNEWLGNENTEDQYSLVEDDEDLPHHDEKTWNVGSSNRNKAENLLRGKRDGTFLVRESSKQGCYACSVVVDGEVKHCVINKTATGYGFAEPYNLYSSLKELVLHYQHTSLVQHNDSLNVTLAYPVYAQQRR
experiment-summary: PI3Kδ scintillation proximity assay
Format: biochemical
test-parameters: 2 μM ATP, 20 μM PIP2
Counter-ions that a name gives are not always drawn.
measurement-kind: IC50

{"columns": ["compound", "value-observed"],
 "data": [
  ["CC(NC(=O)c1c(N)nn2cccnc12)c1cc(Cl)c2cncn2c1-c1cccnc1 (racemic) [Example 127, trifluoroacetate salt]", "< 100 nM"],
  ["CC(NC(=O)c1c(N)nn2cccnc12)c1cc(Cl)c2cncn2c1N1C[C@H](O)C[C@H](O)C1 (stereo partly drawn) [Example 155B, trifluoroacetate salt]", "< 100 nM"],
  ["CNC(=O)c1ccc(-c2c(C(C)NC(=O)c3c(N)nn4cccnc34)cc(Cl)c3cncn23)cn1 (racemic) [Example 132, trifluoroacetate salt]", "< 500 nM"],
  ["CCOc1c(C(C)NC(=O)c2c(N)nn3cccnc23)cc(Cl)c2c(Br)n[nH]c12 (stereo not drawn) [Example 52, trifluoroacetate]", "< 500 nM"],
  ["CC(NC(=O)c1c(N)nn2cccnc12)c1cc(Cl)c2cncn2c1-c1cncc(S(C)(=O)=O)c1 (racemic) [Example 131, trifluoroacetate salt]", "< 100 nM"],
  ["CCOc1c(C(C)NC(=O)c2c(N)nn3cccnc23)cc(Cl)c2cn(CC(C)C)nc12 (stereo not drawn) [Example 9a, trifluoroacetate]", "≥ 2000 nM"]
]}

====

target-entity: PI3Kγ (p110γ) Recombinant Human Protein (Homo sapiens (Human))
Sequence (P48736 whole entry): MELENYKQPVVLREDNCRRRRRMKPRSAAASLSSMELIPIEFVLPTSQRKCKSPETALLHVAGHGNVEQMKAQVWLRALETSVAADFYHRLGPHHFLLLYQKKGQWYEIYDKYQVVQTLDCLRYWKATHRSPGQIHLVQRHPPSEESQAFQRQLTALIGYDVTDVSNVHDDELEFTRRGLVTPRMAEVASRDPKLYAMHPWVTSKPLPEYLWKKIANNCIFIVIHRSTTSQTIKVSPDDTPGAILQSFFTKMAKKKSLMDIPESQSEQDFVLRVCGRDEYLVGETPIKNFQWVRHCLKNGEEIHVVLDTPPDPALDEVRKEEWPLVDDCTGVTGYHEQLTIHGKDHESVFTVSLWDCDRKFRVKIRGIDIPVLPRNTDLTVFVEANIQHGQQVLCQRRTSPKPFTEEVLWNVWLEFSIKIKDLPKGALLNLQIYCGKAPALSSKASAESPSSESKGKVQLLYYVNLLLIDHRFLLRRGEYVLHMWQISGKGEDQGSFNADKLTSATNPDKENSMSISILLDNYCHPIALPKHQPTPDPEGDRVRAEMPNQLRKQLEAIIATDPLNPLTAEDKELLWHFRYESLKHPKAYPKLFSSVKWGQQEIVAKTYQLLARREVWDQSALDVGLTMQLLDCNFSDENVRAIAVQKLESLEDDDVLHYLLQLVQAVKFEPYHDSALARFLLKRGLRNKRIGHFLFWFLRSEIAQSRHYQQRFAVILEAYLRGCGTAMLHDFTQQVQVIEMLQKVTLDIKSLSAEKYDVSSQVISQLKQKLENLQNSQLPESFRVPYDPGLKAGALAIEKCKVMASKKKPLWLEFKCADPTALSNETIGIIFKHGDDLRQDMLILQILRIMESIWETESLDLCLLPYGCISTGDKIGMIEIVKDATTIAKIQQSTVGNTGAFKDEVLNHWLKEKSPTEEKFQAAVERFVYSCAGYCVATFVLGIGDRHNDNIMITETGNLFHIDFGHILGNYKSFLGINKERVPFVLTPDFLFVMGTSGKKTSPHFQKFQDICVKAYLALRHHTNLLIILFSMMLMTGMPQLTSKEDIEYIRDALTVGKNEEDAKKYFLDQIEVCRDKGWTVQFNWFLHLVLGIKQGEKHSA
experiment-summary: PI3K-γ scintillation proximity assay
test-parameters: 2 μM ATP, 20 μM PIP2
Structures can show the parent of a compound that is named as a salt.
Listed below: IC50 values for each entry.
measurement-kind: IC50

{"columns": ["compound", "target-entity", "measurement-kind", "value-observed"],
 "data": [
  ["CC(NC(=O)c1c(N)nn2cccnc12)c1cc(Cl)c2cncn2c1N1C[C@H](O)[C@@H](F)C1 (mixture of isomers) [Example 35, trifluoroacetate salt]", "PI3Kγ (p110γ) Recombinant Human Protein (Homo sapiens (Human))", "IC50", "< 100 nM"],
  ["CC(NC(=O)c1c(N)nn2cccnc12)c1cc(Cl)c2cn[nH]c2c1N1CCC(S(=O)(=O)N(C)C)CC1 (stereo not drawn)", "PI3Kγ (p110γ) Recombinant Human Protein (Homo sapiens (Human))", "IC50", "< 100 nM"],
  ["CNC(=O)C1CCN(c2c(C(C)NC(=O)c3c(N)nn4cccnc34)cc(Cl)c3cn[nH]c23)C1 (single isomer, unassigned) [Example 103B, trifluoroacetate]", "PI3Kγ (p110γ) Recombinant Human Protein (Homo sapiens (Human))", "IC50", "< 100 nM"]
]}

====

target-entity: PI3Kδ (p110δ/p85α) Recombinant Human Protein (Homo sapiens (Human), UniProt O00329)
experiment-summary: PI3Kδ scintillation proximity assay
Type: biochemical
test-parameters: 2 μM ATP, 20 μM PIP2
Structures can show the parent of a compound that is named as a salt.

{"columns": ["compound", "target-entity", "IC50"],
 "data": [
  ["CC(NC(=O)c1c(N)nn2cccnc12)c1cc(Cl)c2cncn2c1N1CCS(=O)(=O)CC1 (single isomer, unassigned) [Example 36A]", "PI3Kδ (p110δ/p85α) Recombinant Human Protein (Homo sapiens (Human), UniProt O00329)", "< 100 nM"],
  ["CC(NC(=O)c1c(N)nn2cccnc12)c1cc(Cl)c2c(Cl)cnn2c1N1CCNS(=O)(=O)CC1 (stereo not drawn) [Example 115, trifluoroacetate]", "PI3Kδ (p110δ/p85α) Recombinant Human Protein (Homo sapiens (Human), UniProt O00329)", "< 100 nM"],
  ["CC1CN(c2c(CNC(=O)c3c(N)nn4cccnc34)cc(Cl)c3c(C#N)ncn23)CCS1(=O)=O (stereo not drawn) [Example 174, trifluoroacetate salt]", "PI3Kδ (p110δ/p85α) Recombinant Human Protein (Homo sapiens (Human), UniProt O00329)", "< 2000 nM"],
  ["CC(NC(=O)c1c(N)nn2cccnc12)c1cc(Cl)c2cncn2c1N1C[C@H](O)[C@@H](F)C1 (mixture of isomers) [Example 35, trifluoroacetate salt]", "PI3Kδ (p110δ/p85α) Recombinant Human Protein (Homo sapiens (Human), UniProt O00329)", "< 100 nM"],
  ["CCC(NC(=O)c1c(N)nn2cccnc12)c1cc(Cl)c2c(C#N)ncn2c1N1CCS(=O)(=O)C(C)C1 (stereo not drawn) [Example 175, trifluoroacetate salt]", "PI3Kδ (p110δ/p85α) Recombinant Human Protein (Homo sapiens (Human), UniProt O00329)", "< 2000 nM"],
  ["CC(C)C(NC(=O)c1c(N)nn2cccnc12)c1cc(Cl)c2cncn2c1N1CCS(=O)(=O)CC1 (racemic) [Example 181, trifluoroacetate salt]", "PI3Kδ (p110δ/p85α) Recombinant Human Protein (Homo sapiens (Human), UniProt O00329)", "< 100 nM"]
]}

====

target-entity: PI3Kδ (p110δ/p85α) Recombinant Human Protein (Homo sapiens (Human))
experiment-summary: PI3Kδ scintillation proximity assay
Type: biochemical
test-parameters: 2 μM ATP, 20 μM PIP2
Structures can show the parent of a compound that is named as a salt.
Listed below: IC50 values for each entry.

{"columns": ["compound", "IC50"],
 "data": [
  ["CCOc1c(C(C)NC(=O)c2c(N)nn3cccnc23)cc(Cl)c2c(Br)nn(CCO)c12 (stereo not drawn)", "< 100 nM"],
  ["CCOc1c(C(C)NC(=O)c2c(N)nn3ccc(N4CCCCC4)nc23)cc(Cl)c2cn[nH]c12 (stereo not drawn) [Example 44, trifluoroacetate salt]", "< 2000 nM"],
  ["CC(=O)N[C@H]1CCN(c2c(C(C)NC(=O)c3c(N)nn4cccnc34)cc(Cl)c3cn[nH]c23)C1 (stereo partly drawn) [Example 95, trifluoroacetate]", "< 100 nM"],
  ["C#Cc1nc(C)n2c(-c3ccccc3)c(C(C)NC(=O)c3c(N)nn4cccnc34)cc(Cl)c12 (racemic)", "< 2000 nM"],
  ["CNS(=O)(=O)C1CCN(c2c(C(C)NC(=O)c3c(N)nn4cccnc34)cc(Cl)c3cn[nH]c23)C1 (stereo not drawn)", "< 500 nM"],
  ["Cc1nc(C(F)(F)F)c2c(Cl)cc(C(C)NC(=O)c3c(N)nn4cccnc34)c(-c3ccccc3)n12 (racemic) [Example 124, trifluoroacetate salt]", "≥ 2000 nM"],
  ["CC(NC(=O)c1c(N)nn2cccnc12)c1cc(Cl)c2cncn2c1N1CCS(=O)(=O)C(C)(C)C1 (stereo not drawn) [Example 40, trifluoroacetate salt]", "< 100 nM"],
  ["CC(NC(=O)c1c(N)nn2cccnc12)c1cc(Cl)c2cn[nH]c2c1OC(F)F (stereo not drawn) [Example 83, trifluoroacetate]", "< 100 nM"],
  ["Nc1nn2cccnc2c1C(=O)NCc1cc(Cl)c2cncn2c1N1CCCC1 [Example 171, trifluoroacetate salt]", "< 500 nM"]
]}

====

target-entity: PI3Kδ (p110δ/p85α) Recombinant Human Protein (Homo sapiens (Human), UniProt O00329)
experiment-summary: PI3Kδ scintillation proximity assay
Type: biochemical
test-parameters: 2 μM ATP, 20 μM PIP2
Where a name gives a salt, the structure may show the parent alone.

{"columns": ["molecule", "IC50"],
 "data": [
  ["CC(NC(=O)c1c(N)nn2cccnc12)c1cc(Cl)c2cncn2c1N1CCS(=O)(=O)CC1C (single isomer, unassigned) [Example 38A, trifluoroacetate salt]", "< 100 nM"],
  ["CC(NC(=O)c1c(N)nn2cccnc12)c1cc(Cl)c2cncn2c1N1CCCC(F)C1 (stereo not drawn) [Example 73C-73D]", "≥ 2000 nM"],
  ["CCOc1c(C(C)NC(=O)c2c(N)nc3ccc(Cl)nn23)cc(Cl)c2cn[nH]c12 (stereo not drawn) [Example 45]", "< 100 nM"],
  ["CC(NC(=O)c1c(N)nn2cccnc12)c1cc(Cl)c2cncn2c1-c1ccc(S(C)(=O)=O)cc1 (racemic) [Example 136, trifluoroacetate salt]", "< 500 nM"],
  ["CC(NC(=O)c1c(N)nn2cccnc12)c1cc(Cl)c2cncn2c1-c1cn[nH]c1 (racemic) [Example 139, trifluoroacetate salt]", "< 100 nM"],
  ["CC(NC(=O)c1c(N)nn2cccnc12)c1cc(Cl)c2cncn2c1N1CCS(=O)(=O)CC1 (stereo not drawn) [Example 36, trifluoroacetate salt]", "< 100 nM"]
]}
